Hello, the source for this data is PubChem BioAssay (NCI), in case you need it.

- Test Name: NCI Yeast Anticancer Drug Screen. Data for the mec2-1 strain (AID 157)
- Test Parameters: S. cerevisiae mec2-1 strain, at 50.0 µM, stronger effect = higher value
- Procedure: Growth inhibition of yeast strains with defined genetic alterations is measured as a screen for potential anti-cancer activity. Selected strains with alterations in DNA damage repair or cell cycle control were exposed to compounds and growth inhibition was measured relative to vehicle treated controls. The strain used in this assay is mec2-1
This is part of a sample that, as a whole, favours compounds with a hit. Of some 79,000 tested, about 15% had one in any assay.
Endpoint Name: growth inhibition (%)
Entry rule: numbers only, all in %.

The cases that follow already have their growth inhibition on record.
| Molecule | Uom | growth inhibition |
| --- | --- | --- |
| CCCCCCOC(=O)C(C)(O)C(Cl)c1ccccc1 (configuration not stated) | % | -0.45 |
| CN(C)c1ccc(N=Cc2ccc(O)cc2)cc1 | % | 0.55 |
| CCCCNS(=O)(=O)c1ccc(C)cc1 | % | -26.4 |
| O=C1NC(=S)N(c2ccccc2)C1=O | % | -7.65 |
| O=c1[nH]c2cc([N+](=O)[O-])ccc2c2ccc(Cl)cc12 | % | 0 |

Please look up its growth inhibition: O=C1c2ccccc2OCC1/C=N/O (configuration not stated)
-24.1

Please look up its growth inhibition: CC1(C)C2CCC1(C)C(S)C2 (configuration not stated)
-1
